Entry source: PubChem BioAssay

system: transactivating tegument protein VP16 (Human herpesvirus 1); assay: VP16 transactivation reporter inhibitors, counter-screen for SRC2 inhibitor project, cell-based, luminescence, single concentration (AID 652007); conditions: cell-based VP16 transactivation luciferase reporter, at 8.9 µM, active compounds read high
Entry flag: Satisfied if inhibition reaches 20%; Not satisfied if it does not.

molecule=Cc1ccc(C(=O)Nc2ncc([N+](=O)[O-])s2)cc1 classification="Not satisfied"
molecule=Cc1ccc(N(Cc2cc(=O)[nH]c3ccccc23)C(=O)CCl)cc1 classification=Satisfied
molecule="CCC1=C(CC2NCCc3ccccc32)CC2c3cc(OC)c(OC)cc3CCN2C1 (stereo unspecified)" classification=Satisfied
molecule=Fc1ccc(CNC2CCN(Cc3ccccc3)CC2)cc1 classification="Not satisfied"
molecule=O=C(NCCCN1CCOCC1)c1ccc(CNS(=O)(=O)c2ccc(Br)cc2)cc1 classification="Not satisfied"
molecule=c1cc2[nH]snc2c2nc(C3CC3)nc12 classification="Not satisfied"
molecule=CC(=O)N(Cc1ccc(F)cc1)C1=C(NCCc2ccccc2)C(=O)c2ccccc2C1=O classification="Not satisfied"
molecule="CC(c1ccccc1)N1CCN(C(=O)CCl)CC1 (stereo unspecified)" classification="Not satisfied"
molecule=CCn1c(Cl)c(C=O)s/c1=N\S(=O)(=O)c1ccccc1 classification=Satisfied
molecule=Cc1ccc(S(=O)(=O)/N=C(\N)c2ccc(F)cc2)cc1 classification="Not satisfied"
molecule=CC(C)[C@H](CO)Nc1nc(NCc2ccc(S(N)(=O)=O)cc2)c2ncn(C(C)C)c2n1 classification="Not satisfied"

====

biological target: Nuclear receptor subfamily 5 group A member 2 (Homo sapiens); experiment: LRH-1 (NR5A2) inverse agonists, retest, confirmation, cell-based, luminescence (AID 651613); settings: cell-based LRH-1 luciferase reporter, inverse agonism; at 3.6 µM; active compounds read high;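 further: HEK293T cells co-transfected with LRH-1 and StAR promoter luciferase reporter; 0% = vehicle wells and 100% = parental cells lacking receptor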
Bucketed by reported inhibition, buckets being low group: < 50%; middle group: ≥ 50% and < 60%; high group: ≥ 60%

molecule=CCc1ccccc1NC(=O)CSc1nnc([C@@H](NC(=O)OC(C)(C)C)C(C)C)o1 classification="low group"
molecule=Cc1c(C)c2cccnc2c2ncccc12 classification="high group"
molecule=CC(=O)ON=C1C=CC(=C(C#N)c2ccccc2)C=C1 classification="high group"
molecule=CC1(C)N=C(N)N=C(N)N1c1ccc(CCCCc2ccccc2)cc1 classification="high group"
molecule="COc1cc2c(cc1OC)C(C1C(=O)CC(C)CC1=O)N(C(=O)CCl)CC2 (stereo unspecified)" classification="middle group"
molecule=CC1(C)CC(=O)C=C(c2ccc3c(c2)OCO3)C1 classification="low group"
molecule=CC(C)NC(=O)CN1CCN(C(=O)CCl)CC1 classification="middle group"
molecule=CCNc1cc(N2CCCC2)ccc1[N+](=O)[O-] classification="low group"

====

target: Nuclear receptor coactivator 1 (Homo sapiens) (UniProt Q15788); assay: SRC1 coactivator transcriptional activity inhibitors, confirmation, cell-based, luminescence, quadruplicate (AID 588820); settings: HEK293 GAL4-SRC1 luciferase reporter, at 3.6 µM;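 further: 0% = DMSO wells and 100% = gossypol 36 µM treated wells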
Sequence (Q15788 whole entry, looked up, the tested form may be a part): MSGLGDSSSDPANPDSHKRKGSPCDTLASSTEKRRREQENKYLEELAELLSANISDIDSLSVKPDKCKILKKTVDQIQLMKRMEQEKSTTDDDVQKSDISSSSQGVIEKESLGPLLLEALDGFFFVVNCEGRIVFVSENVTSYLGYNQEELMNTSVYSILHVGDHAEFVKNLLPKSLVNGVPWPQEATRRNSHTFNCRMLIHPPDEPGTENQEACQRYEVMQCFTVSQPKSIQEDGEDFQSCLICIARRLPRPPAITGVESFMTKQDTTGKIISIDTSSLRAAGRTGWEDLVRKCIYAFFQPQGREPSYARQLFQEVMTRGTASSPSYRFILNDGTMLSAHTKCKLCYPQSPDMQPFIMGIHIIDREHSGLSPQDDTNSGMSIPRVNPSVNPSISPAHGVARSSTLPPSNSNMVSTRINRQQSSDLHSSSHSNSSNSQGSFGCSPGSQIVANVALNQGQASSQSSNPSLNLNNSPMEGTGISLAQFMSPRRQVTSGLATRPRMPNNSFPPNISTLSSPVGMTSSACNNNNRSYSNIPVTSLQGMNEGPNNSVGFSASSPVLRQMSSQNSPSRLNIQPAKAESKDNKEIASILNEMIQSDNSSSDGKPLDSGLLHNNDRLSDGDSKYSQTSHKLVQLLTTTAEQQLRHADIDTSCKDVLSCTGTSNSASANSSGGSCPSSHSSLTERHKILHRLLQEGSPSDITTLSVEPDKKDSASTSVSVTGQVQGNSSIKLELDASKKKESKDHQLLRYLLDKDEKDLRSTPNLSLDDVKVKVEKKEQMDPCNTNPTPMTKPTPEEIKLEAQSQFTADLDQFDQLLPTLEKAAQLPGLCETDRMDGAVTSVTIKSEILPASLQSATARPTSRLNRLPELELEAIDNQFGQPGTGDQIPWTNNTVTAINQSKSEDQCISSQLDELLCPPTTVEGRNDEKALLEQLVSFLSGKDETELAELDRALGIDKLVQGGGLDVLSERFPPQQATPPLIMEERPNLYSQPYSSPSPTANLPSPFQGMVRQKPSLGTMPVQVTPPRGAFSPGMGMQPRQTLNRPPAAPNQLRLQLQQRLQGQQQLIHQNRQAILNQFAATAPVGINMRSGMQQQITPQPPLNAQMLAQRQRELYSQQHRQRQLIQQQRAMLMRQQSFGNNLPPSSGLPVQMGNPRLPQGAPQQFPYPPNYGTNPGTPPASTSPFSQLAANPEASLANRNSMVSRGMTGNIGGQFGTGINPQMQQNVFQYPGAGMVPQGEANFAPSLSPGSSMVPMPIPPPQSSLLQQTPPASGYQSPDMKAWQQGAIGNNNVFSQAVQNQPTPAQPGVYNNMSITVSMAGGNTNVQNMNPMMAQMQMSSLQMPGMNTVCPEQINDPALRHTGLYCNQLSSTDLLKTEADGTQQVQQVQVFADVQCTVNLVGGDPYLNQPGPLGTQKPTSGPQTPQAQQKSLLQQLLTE
The source made the active and inactive calls.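 The calls were made as follows: active = mean inhibition above 46.68%, the untreated control wells mean plus 3 SD; inactive = the rest.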
Labels: 1.0 = active, 0.0 = inactive

molecule="Cc1ccc(S(=O)(=O)NC(CC(C)C)C(=O)NCC(c2ccco2)N2CCCCC2)cc1 (configuration not stated)" classification=0.0
molecule="CCCCNC(=O)C1(C)CCCCN1C(=O)c1ccc2c(c1)C(C)(C)CCC2(C)C (configuration not stated)" classification=0.0
molecule=O=C1CSc2ccc(S(=O)(=O)NCc3ccccc3)cc2N1 classification=0.0
molecule=O=C1N(c2ccccc2)C[C@@H]2C[C@@H](c3cc4ccccc4o3)N3CCC[C@@]123 classification=1.0
molecule=COc1ccc(CNC(=O)c2cc3c(C)nc4ccccc4c3o2)c(OC)c1 classification=0.0
molecule=N=c1c2c(-c3ccccc3)c(-c3ccccc3)n(Cc3ccccc3)c2ncn1CCCn1ccnc1 classification=1.0
molecule=C[n+]1c2n(c3ccccc31)N=C(c1ccc(Cl)cc1)CS2 classification=0.0
molecule=Fc1ccc(CSc2nnc(-c3ccncc3)o2)cc1 classification=0.0
molecule=COc1ccc(/C=C2/SC(=S)N(CCCC(=O)Nc3ccccc3C(=O)O)C2=O)cc1 classification=0.0
molecule=Cn1nnnc1Sc1ncnc2scc(-c3ccc4c(c3)OCO4)c12 classification=0.0
molecule=CCOC(=O)N1CCC(Nc2ncnc3c2cnn3-c2ccc(C)cc2C)CC1 classification=0.0
molecule="CCOC(=O)C(C(C)=O)c1c(Br)c(O)c(O)c2c(C(=O)c3ccc(C)cc3)coc12 (configuration not stated)" classification=0.0
molecule=O=NN(CC(=O)NNc1ccccc1)CC(=O)NNc1ccccc1 classification=0.0
molecule=O=C(NCc1cccnc1)/C(=C\c1ccc(-c2ccc(Br)cc2)o1)S(=O)(=O)c1ccccc1 classification=1.0
molecule=COc1ccc(-c2cn[nH]c2-c2ccc(OC)cc2O)cc1 classification=0.0
molecule=Cc1sc(NC(=O)/C=C/c2ccc3c(c2)OCO3)nc1-c1ccccc1 classification=0.0
molecule="CC(C)(C)S(=O)N1Cc2cc(C(=O)NCC(F)(F)F)nc(-c3cccc(-c4cccc(F)c4)c3)c2[C@@H]1CCO (some centres not stated)" classification=0.0
molecule=CN(C)CCNC(=O)c1cccc2nc3c(ccc4ccccc43)nc12 classification=0.0
molecule=COc1ccccc1NC(=O)Cn1c(C)cc(=O)c2cccc(OC)c21 classification=0.0
molecule=O=S(=O)(Nc1ccc2c(c1)OCCO2)c1cccs1 classification=0.0
molecule=CC[n+]1c(/C=C/Nc2ccccc2)oc2ccccc21 classification=0.0
molecule=CC(C)(C)OC(=O)NCCCC[C@H](NC(=O)c1nc[nH]c1C(=O)N[C@@H](CCCCNC(=O)OC(C)(C)C)C(=O)OC(C)(C)C)C(=O)OC(C)(C)C classification=0.0
molecule="COC1C=CC=C(C)C(=O)NC2=CC(=O)C(N)=C(CC(C)CC(OC)C(O)C(C)C=C(C)C1OC(N)=O)C2=O (configuration not stated)" classification=0.0
molecule="O=C(c1nnsc1S(=O)c1ccc(Cl)cc1)N1CCOCC1 (configuration not stated)" classification=0.0
molecule=Nc1ccccc1Nc1cccc(C(F)(F)F)c1 classification=0.0
molecule=CCOc1cc(Br)cc(/C=N/NC(=O)c2cccnc2)c1O classification=0.0
molecule=COc1ccc(N=C(NN)c2ccc3ccccc3n2)cc1 classification=0.0
molecule="CN1CC(=O)N2C(c3cccc([N+](=O)[O-])c3)c3[nH]c4ccccc4c3C[C@H]2C1=O (some centres not stated)" classification=0.0
molecule="CC(=O)Nc1ccc(NC(=O)C2Cc3c(-c4ccco4)ccnc3O2)cc1 (configuration not stated)" classification=0.0
molecule=COc1ccc(CNC(=O)c2cccc3c(-c4cccc(C(N)=O)c4)coc23)cc1OC classification=0.0
molecule=O=C1C(=O)c2cccnc2-c2ncccc21 classification=1.0
molecule="CCN(C(=O)CN1C(=O)S/C(=C\\c2cccc(Cl)c2)C1=O)C1CCS(=O)(=O)C1 (configuration not stated)" classification=0.0
molecule=Cc1nc2sc(C(N)=O)c(N)c2c2c1CCCC2 classification=1.0
molecule="CC(C)C(=O)NC(Nc1cccc([N+](=O)[O-])c1)C(Cl)(Cl)Cl (configuration not stated)" classification=0.0
molecule=CCSc1nnc(NC(=O)C(C)(C(F)(F)F)C(F)(F)F)s1 classification=0.0
molecule=COc1ccc(OC)c(C2=NS(=O)(=O)N(C)C(C(=O)Nc3ccc(F)cc3F)=C2)c1 classification=0.0
molecule=Nc1ccc2c(c1)OC1(CCCC1)O2 classification=0.0
molecule=Cc1ccc(N=c2c([N+](=O)[O-])nn(-c3ccc4c(c3)OCCO4)n2O)cc1F classification=0.0
molecule="N#CC(c1ccc(Cl)cc1)c1ccc2c(C(F)(F)F)cc(C(F)(F)F)nc2n1 (configuration not stated)" classification=0.0
molecule=COc1ccccc1CCNC(=O)CCn1c(=O)c2cccn2c2ccc(F)cc21 classification=0.0
molecule="CCOC(=O)CNC(c1ccccc1)c1cc(Br)ccc1NC(C)=O (configuration not stated)" classification=0.0
molecule="CC(=O)NC(c1ccc2ccccc2c1)c1ccc2cccnc2c1O (configuration not stated)" classification=1.0
